The entries below come with measured % INHIBITION OF EDEMA values attached.
- assay notes: Protection against pulmonary edema (adrenaline-induced acute edema of the lungs)
- Assay type: in vivo, male albino rats of Wistar type
- test context: dose 1 mg/kg, parenteral, 15 min before adrenaline
Counter-ions that a name gives are not always drawn.
experimental endpoint: % INHIBITION OF EDEMA

> print(dat)
                                   molecule  measured.result
1  COC(=O)[C@@H](N)CCCNC(=N)N [L-A.M., LArginine methyl ester hydrochloride]            21.2%
2  CCOC(=O)[C@@H](N)CCCNC(=N)N [L-A.E., LArginine ethyl ester hydrochloride]            55.7%
3  CCOC(=O)[C@H](N)CCCNC(=N)N [D-A.E., DArginine ethyl ester hydrochloride]             4.2%
4  COC(=O)[C@H](N)CCCNC(=N)N [D-A.M., DArginine methyl ester hydrochloride]            16.8%
5                     CC(=O)Oc1ccccc1C(=O)O            32.2%
6  N=C(N)NCCC[C@H](N)C(=O)O [L-Arginine.2HCl]               7%

---

- Tested on: Fibrin Degradation Products
- assay notes: Inhibition of hyperfibrinolysis caused by urokinase (F.D.P., staphylococcal clumping test)
- Format: in vivo, Wistar rats
- test context: dose 5 mg/kg, parenteral, 30 min before urokinase 2500 U.I/rat
Counter-ions that a name gives are not always drawn.
The entries below come with measured F.D.P. values attached.
experimental endpoint: F.D.P. (milliliters)

> print(dat)
                                   compound              subject.of.test  measured.result
1  COC(=O)[C@H](N)CCCNC(=N)N [D-A.M., DArginine methyl ester hydrochloride]  Fibrin Degradation Products             3.10
2  CCOC(=O)[C@@H](N)CCCNC(=N)N [L-A.E., LArginine ethyl ester hydrochloride]  Fibrin Degradation Products             0.50
3  NC[C@H]1CC[C@H](C(=O)O)CC1 [Tranexamic Acid]  Fibrin Degradation Products             0.58
4  N=C(N)NCCC[C@H](N)C(=O)O [L-Arginine.2HCl]  Fibrin Degradation Products             3.28
5  CCOC(=O)[C@H](N)CCCNC(=N)N [D-A.E., DArginine ethyl ester hydrochloride]  Fibrin Degradation Products             3.20
6  COC(=O)[C@@H](N)CCCNC(=N)N [L-A.M., LArginine methyl ester hydrochloride]  Fibrin Degradation Products             0.48

---

- assay notes: Protection against anaphylactic shock (horse serum)
- Format: in vivo, male albino guinea pigs
- test context: dose 20 mg/kg, parenteral, with horse serum challenge; after 12 h
Where a name gives a salt, the structure may show the parent alone.
The entries below come with measured % MORTALITY values attached.
experimental endpoint: % MORTALITY (%)

> print(dat)
                                   compound  experimental.endpoint  measured.result
1  CCOC(=O)[C@@H](N)CCCNC(=N)N [L-A.E., LArginine ethyl ester hydrochloride]            % MORTALITY               23
2  COC(=O)[C@@H](N)CCCNC(=N)N [L-A.M., LArginine methyl ester hydrochloride]            % MORTALITY               27
3  COC(=O)[C@H](N)CCCNC(=N)N [D-A.M., DArginine methyl ester hydrochloride]            % MORTALITY             81.0
4  N=C(N)NCCC[C@H](N)C(=O)O [L-Arginine.2HCl]            % MORTALITY             76.3
5  CCOC(=O)[C@H](N)CCCNC(=N)N [D-A.E., DArginine ethyl ester hydrochloride]            % MORTALITY             79.4

---

- assay notes: Protection against anaphylactic shock (horse serum)
- Format: in vivo, male albino guinea pigs
- test context: dose 10 mg/kg, parenteral, with horse serum challenge; after 12 h
Counter-ions that a name gives are not always drawn.
The entries below come with measured % MORTALITY values attached.
experimental endpoint: % MORTALITY (%)

> print(dat)
                                   molecule  measured.result
1  COC(=O)[C@H](N)CCCNC(=N)N [D-A.M., DArginine methyl ester hydrochloride]             78.8
2  CCOC(=O)[C@@H](N)CCCNC(=N)N [L-A.E., LArginine ethyl ester hydrochloride]               35
3  COC(=O)[C@@H](N)CCCNC(=N)N [L-A.M., LArginine methyl ester hydrochloride]             40.5
4  CCOC(=O)[C@H](N)CCCNC(=N)N [D-A.E., DArginine ethyl ester hydrochloride]             76.7
5  N=C(N)NCCC[C@H](N)C(=O)O [L-Arginine.2HCl]             78.5

---

- assay notes: Protection against pulmonary edema (adrenaline-induced acute edema of the lungs)
- Assay type: in vivo, male albino rats of Wistar type
- test context: dose 5 mg/kg, parenteral, 15 min before adrenaline
Counter-ions that a name gives are not always drawn.
// NB: equality with 30% counts as not met; only % INHIBITION OF EDEMA strictly below is met

> print(dat)
                                   compound  class.label
1  N=C(N)NCCC[C@H](N)C(=O)O [L-Arginine.2HCl]          met
2  COC(=O)[C@@H](N)CCCNC(=N)N [L-A.M., LArginine methyl ester hydrochloride]          met
3                     CC(=O)Oc1ccccc1C(=O)O      not met
4  COC(=O)[C@H](N)CCCNC(=N)N [D-A.M., DArginine methyl ester hydrochloride]          met
5  CCOC(=O)[C@@H](N)CCCNC(=N)N [L-A.E., LArginine ethyl ester hydrochloride]      not met
6  CCOC(=O)[C@H](N)CCCNC(=N)N [D-A.E., DArginine ethyl ester hydrochloride]          met

---

- assay notes: Protection against shock caused by endotoxins (lipopolysaccharide B from S. Enteritidis)
- Format: in vivo, male rats of Wistar type
- test context: dose 20 mg/kg, parenteral, 1 h before endotoxin; after 24 h
- Source text: Endotoxin-induced shock has been produced according to the method reported by A. Bertelli and L. Donati, in the publication "The Influence of Some Enzymes and Enzymes Inhibitors in Shock", published in "SHOCK Biochemical,Pharmaceutical and Clinical Aspects"; A. Bertelli and N. Back Editors, Advances in Experimental Medicine and Biology; Volume 9, Plenum Press New York - London 1970, page 215. […]
Counter-ions that a name gives are not always drawn.
The entries below come with measured % MORTALITY values attached.
experimental endpoint: % MORTALITY (%)

> print(dat)
                                   molecule  measured.result
1  N=C(N)NCCC[C@H](N)C(=O)O [L-Arginine.2HCl]               71
2  COC(=O)[C@@H](N)CCCNC(=N)N [L-A.M., LArginine methyl ester hydrochloride]             40.0
3  COC(=O)[C@H](N)CCCNC(=N)N [D-A.M., DArginine methyl ester hydrochloride]               69
4  CCOC(=O)[C@H](N)CCCNC(=N)N [D-A.E., DArginine ethyl ester hydrochloride]             69.3
5  CCOC(=O)[C@@H](N)CCCNC(=N)N [L-A.E., LArginine ethyl ester hydrochloride]             37.5
